The measurements presented in this section are drawn from patent US20080058263A1.

- measurement.target: T1, VEGFR-2-Fc (UniProt P35968 20-322)
- T1 construct: domain: first 3 Ig domains; conditioned supernatant of 293T cells; also called VEGFR-2-Fc fusion protein; not shown: Fc fragment of the pIg vector
- T1 sequence (P35968 20-322): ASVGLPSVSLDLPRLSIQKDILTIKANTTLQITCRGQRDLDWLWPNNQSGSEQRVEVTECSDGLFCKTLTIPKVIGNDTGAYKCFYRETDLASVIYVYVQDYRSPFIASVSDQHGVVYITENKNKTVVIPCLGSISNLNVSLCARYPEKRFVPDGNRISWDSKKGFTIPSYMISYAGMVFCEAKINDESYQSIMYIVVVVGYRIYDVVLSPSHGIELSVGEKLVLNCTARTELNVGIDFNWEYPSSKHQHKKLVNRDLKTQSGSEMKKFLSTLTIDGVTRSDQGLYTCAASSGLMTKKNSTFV
- test.details: receptor-Fc IP
- Description: The binding assay procedure was identical to the immunoprecipitation using pentahistidine antibody described in Example 2, apart from the composition of the immunoprecipitation (IP) mixes. […]
recorded.metric: binding result

INSERT INTO assay_data (binder, reading) VALUES
  ('73-10 (ligand) GQNHHEVVKSIDNEWRKTQCMPREVCIDVGKEYPDEIEYIFKPPCVSVYRCGGCCNDEGLECMNTSTSYLSKTLFEITVPLSQGPKPVTISFLQHNKCECRPKKD', 'no binding'),
  ('31-3 (ligand) GQNHHEVVKSIDNEWRKTQCMPIETLVDIFQEYPDEIEYIFKPSCVPLMRCGGCCNDEGLECVPTEESNITMQIMRITVPLSQGPKPVTISFLQHNKCECRPKKD', 'no binding'),
  ('81-15 (ligand) AHYNTEILKFMDVYQRSYCHPIETLVDIFQEYPDEIEYIFKPSCVPLMRCGGCCNSEGLQCVPTEESNITMQIMRITVPLSQGPKPVTISFANHTSCRCMSKLD', 'binds'),
  ('81-11 (ligand) AHYNTEILKFMDVYQRSYCHPIETLVDIFQEYPDEIEYIFKPSCVPLMRCGGCCNSEGLQCVPTEESNITMQIMRITVPLSQGPKPVTISFLQHNKCECRPKKD', 'binds');
